Give IC50 for every item shown.
Target: α1 Receptor
Assay: α1 receptor binding
Conditions: read-out: α1 Receptor Binding IC50, Alpha1
Numbers only, in nM.

Study these solved cases before continuing.
C[C@@H](O)c1nn(CCCN2CCN(c3cccc(Cl)c3)CC2)c(=O)n1CCOc1ccccc1 [(R)—OH, (R)-Hydroxynefazodone] = 367
CCc1nn(CCCN2CCN(c3cccc(Cl)c3)CC2)c(=O)n1CCOc1ccccc1 [Nefazodone, reference compound] = 306

Quick batch: IC50 for everything below.
1. C[C@H](O)c1nn(CCCN2CCN(c3cccc(Cl)c3)CC2)c(=O)n1CCOc1ccccc1 [(S)—OH]
2. CC(O)c1nn(CCCN2CCN(c3cccc(Cl)c3)CC2)c(=O)n1CCOc1ccccc1 (racemic) [(RS)—OH, hydroxynefazodone]

a:
419
381

###

Protein target, amino acids: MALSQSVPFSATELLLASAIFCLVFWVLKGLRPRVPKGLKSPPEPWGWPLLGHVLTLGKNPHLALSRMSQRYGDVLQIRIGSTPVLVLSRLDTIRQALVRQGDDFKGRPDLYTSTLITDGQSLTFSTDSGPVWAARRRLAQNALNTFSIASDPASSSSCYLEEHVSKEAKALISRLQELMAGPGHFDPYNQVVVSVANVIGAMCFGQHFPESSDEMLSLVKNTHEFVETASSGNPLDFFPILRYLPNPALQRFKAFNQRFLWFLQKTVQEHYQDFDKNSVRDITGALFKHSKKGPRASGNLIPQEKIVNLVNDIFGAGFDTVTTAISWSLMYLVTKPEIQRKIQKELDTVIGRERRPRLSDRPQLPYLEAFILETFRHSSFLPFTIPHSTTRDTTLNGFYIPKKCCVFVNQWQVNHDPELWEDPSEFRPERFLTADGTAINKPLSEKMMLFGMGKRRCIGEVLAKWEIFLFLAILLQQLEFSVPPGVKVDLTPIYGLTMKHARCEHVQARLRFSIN
Give IC50 for every item shown.

Quick batch: IC50 for everything below.
1. CCc1nn(CCCN2CCN(c3cccc(Cl)c3)CC2)c(=O)n1CCOc1ccccc1 [Nefazodone, reference compound]
2. C[C@H](O)c1nn(CCCN2CCN(c3cccc(Cl)c3)CC2)c(=O)n1CCOc1ccccc1 [(S)—OH]
3. C[C@@H](O)c1nn(CCCN2CCN(c3cccc(Cl)c3)CC2)c(=O)n1CCOc1ccccc1 [(R)—OH, (R)-Hydroxynefazodone]

a:
1. > 200 µM
2. > 200 µM
3. > 200 µM

###

Give IC50 for every item shown.
System: serotonin uptake
Test: Serotonin uptake functional assay (rat cortex synaptosomes)
Format: biochemical
Conditions: rat cortex synaptosomes; read-out: Monoamine Neuronal Transport IC50, 5-HT Uptake
Experimental: Characterization of serotonin uptake is performed using synaptosomes isolated in a 0.32 M sucrose buffer from a male Wistar rat cortex. The uptake of radiolabelled serotonin by synaptosomes (100 μg of proteins/point) is allowed by incubating them for 15 minutes at 37° C. in presence of test compounds and [3H]5-hydroxytryptamin (0.1 μCi/point). The experiment is performed in a deep well. […]
Show the value, then the unit it is measured in.

C[C@H](O)c1nn(CCCN2CCN(c3cccc(Cl)c3)CC2)c(=O)n1CCOc1ccccc1 [(S)—OH] = 790 nM
C[C@@H](O)c1nn(CCCN2CCN(c3cccc(Cl)c3)CC2)c(=O)n1CCOc1ccccc1 [(R)—OH, (R)-Hydroxynefazodone] = 640 nM
CC(O)c1nn(CCCN2CCN(c3cccc(Cl)c3)CC2)c(=O)n1CCOc1ccccc1 (racemic) [(RS)—OH, hydroxynefazodone] = 500 nM

Could you now look at the following compound, please?
q: Report IC50 for CCc1nn(CCCN2CCN(c3cccc(Cl)c3)CC2)c(=O)n1CCOc1ccccc1 [Nefazodone, reference compound] tested on serotonin uptake.
a: 200 nM

###

Molecular target: CYP3A4 (Homo sapiens)
Sequence (P08684 whole entry): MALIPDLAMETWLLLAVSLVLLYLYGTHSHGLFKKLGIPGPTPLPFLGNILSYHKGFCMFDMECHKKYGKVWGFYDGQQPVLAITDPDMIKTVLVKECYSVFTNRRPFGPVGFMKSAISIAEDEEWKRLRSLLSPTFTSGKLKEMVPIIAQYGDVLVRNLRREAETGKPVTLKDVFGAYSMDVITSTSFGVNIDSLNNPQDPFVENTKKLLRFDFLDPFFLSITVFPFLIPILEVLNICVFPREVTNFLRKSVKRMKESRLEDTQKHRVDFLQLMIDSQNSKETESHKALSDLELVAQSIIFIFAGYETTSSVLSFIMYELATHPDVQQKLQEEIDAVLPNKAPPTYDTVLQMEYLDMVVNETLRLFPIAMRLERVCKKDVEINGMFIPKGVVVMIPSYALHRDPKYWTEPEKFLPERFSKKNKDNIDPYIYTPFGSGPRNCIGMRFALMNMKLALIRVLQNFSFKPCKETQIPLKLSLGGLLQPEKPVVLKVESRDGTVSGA
readout-label: IC50

q: Report IC50 for C[C@@H](O)c1nn(CCCN2CCN(c3cccc(Cl)c3)CC2)c(=O)n1CCOc1ccccc1 [(R)—OH, (R)-Hydroxynefazodone] tested on CYP3A4 (Homo sapiens).
a: > 200 µM
